B1: RNA-binding E3 ubiquitin-protein ligase MEX3C, residues 325 to 391; numbered along this chain, Q5U5Q3 (parent)
chain: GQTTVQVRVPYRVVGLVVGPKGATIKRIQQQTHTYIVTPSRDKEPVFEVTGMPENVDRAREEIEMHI

variants of: B1; test: abundance fitness (aPCA) (normalised: wild type 0, dead -1); higher = more abundant; growth selection in yeast, the domain comes from the species named; details: Homo sapiens
# abundance fitness annotations
EXPERIMENTAL_READOUT: abundance fitness

# VARIANT_LABEL, EXPERIMENTAL_READOUT, ENDPOINT_VALUE
records = [
    ("D42L", "abundance fitness", -0.263),
    ("Q31V", "abundance fitness", -0.109),
    ("D42Q", "abundance fitness", -0.122),
    ("T50K", "abundance fitness", -0.52),
    ("V37C", "abundance fitness", -0.205),
    ("N55A", "abundance fitness", -0.146),
    ("F47I", "abundance fitness", -0.853),
    ("P20L", "abundance fitness", -0.59),
    ("D42Y", "abundance fitness", -0.181),
    ("D42S", "abundance fitness", -0.332),
    ("I36W", "abundance fitness", -0.736),
    ("S40H", "abundance fitness", -0.352),
    ("E48H", "abundance fitness", -0.155),
    ("A23R", "abundance fitness", 0.063),
    ("D42C", "abundance fitness", -0.425),
    ("V46E", "abundance fitness", -0.767),
    ("M52A", "abundance fitness", -0.141),
    ("P45S", "abundance fitness", -0.387),
    ("P45G", "abundance fitness", -0.434),
    ("T50E", "abundance fitness", -0.835),
    ("P20E", "abundance fitness", -0.139),
    ("K43W", "abundance fitness", -0.435),
    ("R41H", "abundance fitness", -0.109),
]

The reported measurements were obtained from the Human Domainome abundance scans (Beltran et al. 2025).
